System: RAW264.7 macrophages
Assay: Cell accumulation experiment, transmitted light microscopy of cellular staining pattern
Type: cell-based
Conditions: inferred from staining pattern after 72 hour incubation
experimental readout: Inferred uptake

Some compounds with known Inferred uptake results, for comparison:
[
  {
    "compound": "NC(=O)CCN=c1cc2n(-c3ccc(Cl)cc3)c3ccccc3nc-2cc1Nc1ccc(Cl)cc1 [L]",
    "test system": "RAW264.7 macrophages",
    "value observed": "Good"
  },
  {
    "compound": "CCCCN=c1cc2n(-c3ccc(Cl)cc3)c3ccccc3nc-2cc1Nc1ccc(Cl)cc1 [K]",
    "test system": "RAW264.7 macrophages",
    "value observed": "Slow"
  },
  {
    "compound": "Clc1ccc(Nc2cc3nc4ccccc4n(-c4ccc(Cl)cc4)c-3cc2=NCCc2ccccc2)cc1 [Compound P]",
    "test system": "RAW264.7 macrophages",
    "value observed": "Excellent"
  },
  {
    "compound": "CC(C)C(CO)N=c1cc2n(-c3ccc(Cl)cc3)c3ccccc3nc-2cc1Nc1ccc(Cl)cc1 (centres unmarked) [V]",
    "test system": "RAW264.7 macrophages",
    "value observed": "Good"
  }
]

Value of measured Inferred uptake for the entry Oc1ccc(CCN=c2cc3n(-c4ccc(Cl)cc4)c4ccccc4nc-3cc2Nc2ccc(Cl)cc2)cc1 [Q] : Excellent

Value of measured Inferred uptake for the entry CC(C)N=c1cc2n(-c3ccc(F)cc3)c3ccccc3nc-2cc1Nc1ccc(F)cc1 [E] : Slow

Value of measured Inferred uptake for the entry CC(C)[C@H](CO)N=c1cc2n(-c3ccc(Cl)cc3)c3ccccc3nc-2cc1Nc1ccc(Cl)cc1 [W] : Good

Value of measured Inferred uptake for the entry Oc1ccc(CCN=c2cc3n(-c4ccc(Cl)cc4)c4ccccc4nc-3cc2Nc2ccc(Cl)cc2)cc1O [O] : Good

====

Tested on: RAW264.7 macrophages
Test: Cell accumulation experiment, transmitted light microscopy of cellular staining pattern
Assay type: cell-based
Settings: inferred from staining pattern after 72 hour incubation
experimental readout: Inferred uptake

Some molecules with known Inferred uptake results, for comparison:
[
  {
    "molecule": "COc1ccc(Nc2cc3nc4ccccc4n(-c4ccc(OC)cc4)c-3cc2=NC(C)C)cc1 [A]",
    "test system": "RAW264.7 macrophages",
    "Inferred uptake": "Slow"
  },
  {
    "molecule": "CC(C)/N=c1\\cc2n(-c3ccc(Cl)cc3)c3ccccc3nc-2cc1Nc1ccc(Cl)cc1 [Clofazimine, clofazimine, reference compound]",
    "test system": "RAW264.7 macrophages",
    "Inferred uptake": "Moderate"
  },
  {
    "molecule": "Clc1ccc(Nc2cc3nc4ccccc4n(-c4ccc(Cl)cc4)c-3cc2=NCCN2CCOCC2)cc1 [N]",
    "test system": "RAW264.7 macrophages",
    "Inferred uptake": "Moderate"
  },
  {
    "molecule": "COc1ccc2[nH]cc(CCN=c3cc4n(-c5ccc(Cl)cc5)c5ccccc5nc-4cc3Nc3ccc(Cl)cc3)c2c1 [M]",
    "test system": "RAW264.7 macrophages",
    "Inferred uptake": "Good"
  },
  {
    "molecule": "CC(C)N=c1cc2n(-c3ccc(-c4ccccc4)cc3)c3ccccc3nc-2cc1Nc1ccc(-c2ccccc2)cc1 [C]",
    "test system": "RAW264.7 macrophages",
    "Inferred uptake": "Slow"
  }
]

Value of measured Inferred uptake for the entry C[C@H](N=c1cc2n(-c3ccc(Cl)cc3)c3ccccc3nc-2cc1Nc1ccc(Cl)cc1)c1ccccc1 [R] : Good

====

Test system: RAW264.7 macrophages
Experiment: Cell accumulation experiment, transmitted light microscopy of cellular staining pattern
Format: cell-based
Conditions: inferred from staining pattern after 72 hour incubation
experimental readout: Inferred uptake

[
  {
    "compound": "CC(CN=c1cc2n(-c3ccc(Cl)cc3)c3ccccc3nc-2cc1Nc1ccc(Cl)cc1)c1ccccc1 (stereo not shown) [Compound T]",
    "experimental readout": "Inferred uptake",
    "value observed": "Moderate"
  },
  {
    "compound": "COCCN=c1cc2n(-c3ccc(Cl)cc3)c3ccccc3nc-2cc1Nc1ccc(Cl)cc1 [H]",
    "experimental readout": "Inferred uptake",
    "value observed": "Moderate"
  },
  {
    "compound": "C[C@@H](CN=c1cc2n(-c3ccc(Cl)cc3)c3ccccc3nc-2cc1Nc1ccc(Cl)cc1)c1ccccc1 [Compound U]",
    "experimental readout": "Inferred uptake",
    "value observed": "Good"
  }
]

Numbers sourced from paper PMC4569013.
